This collection of values is drawn from patent US9802960B2.

Molecular target: Human VPS34 (Homo sapiens (Human))
Experiment: Human VPS34 enzyme assay (Adapta TR-FRET)
Type: biochemical
Details: compound concentration 1.11 μM; read-out: Percent Inhibition
inhibition at 1.11 µM listing for selected molecules.

Please review the entries below; each comes with its answer.
CC(=O)Nc1cc(-c2cncc(S(=O)(=O)NC(C)(C)C)c2)ccn1; > 99%
N=C(N)NC(=O)c1cc(-c2ccnc(Nc3ccncn3)c2)cnc1N; 97%
CNS(=O)(=O)Nc1cc(-c2ccnc(NC(C)=O)c2)cnc1C; > 99%

Prompt: Query (molecule): `CC(=O)Nc1cc(-c2cnc(N)c(NS(=O)(=O)c3ccc(F)cc3F)c2)ccn1` ; field requested: inhibition at 1.11 µM
Completion: > 99%

###

Molecular target: Human VPS34 (Homo sapiens (Human))
Assay: Human VPS34 enzyme assay (Adapta TR-FRET)
Format: biochemical
Conditions: compound concentration 1.11 μM; read-out: Percent Inhibition
attribute.measured: inhibition at 1.11 µM

Prompt: Looking for the measured inhibition at 1.11 µM of CC(=O)Nc1cc(-c2cncc(N(C)S(=O)(=O)N(C)C)c2)ccn1 [Compound I-458] , can you help?
Completion: > 99%

Prompt: Please look up its inhibition at 1.11 µM: CC(=O)Nc1cc(-c2cnc(C)c(NS(=O)(=O)c3ccc(C#N)cc3F)c2)ccn1 [Compound I-356]
Completion: > 99%

Prompt: Given the entry CNc1ncc(-c2ccnc(NC(C)=O)c2)cc1S(=O)(=O)Nc1ccc(F)cc1F [Compound I-63] , report its measured inhibition at 1.11 µM.
Completion: > 99%

Prompt: Recorded inhibition at 1.11 µM for Cc1c(-c2ccnc(NC(=O)C3CC3(F)F)c2)cnc(Cl)c1NS(=O)(=O)c1ccc(F)cc1F (centres unmarked) [Compound I-254] , please?
Completion: 77%

Prompt: What does the record list as inhibition at 1.11 µM for CC(=O)Nc1cc(-c2cnc(C)c(N(CCO)S(=O)(=O)c3ccc(F)cc3F)c2)ccn1 [Compound I-319] ?
Completion: 94%

Prompt: Fill in the blank: the reported inhibition at 1.11 µM of COc1ncc(-c2ccnc(NC(C)=O)c2)c(C)c1NS(=O)(=O)c1ccc(F)cc1F [Compound I-248] is ____.
Completion: > 99%

Prompt: Fill in the blank: the reported inhibition at 1.11 µM of CC(=O)Nc1cc(-c2cnc(C)c(NS(=O)(=O)c3ccsc3)c2)ccn1 [Compound I-203] is ____.
Completion: > 99%

Prompt: I have this molecule here, COc1ncc(-c2ccnc(NC(C)=O)c2)cc1NS(=O)(=O)N(C)C [Compound I-220] , and I need its recorded inhibition at 1.11 µM.
Completion: 99%

###

// reported inhibition at 1.11 µM per item
Target: Human VPS34 (Homo sapiens (Human), UniProt Q8NEB9)
Sequence (Q8NEB9 whole entry): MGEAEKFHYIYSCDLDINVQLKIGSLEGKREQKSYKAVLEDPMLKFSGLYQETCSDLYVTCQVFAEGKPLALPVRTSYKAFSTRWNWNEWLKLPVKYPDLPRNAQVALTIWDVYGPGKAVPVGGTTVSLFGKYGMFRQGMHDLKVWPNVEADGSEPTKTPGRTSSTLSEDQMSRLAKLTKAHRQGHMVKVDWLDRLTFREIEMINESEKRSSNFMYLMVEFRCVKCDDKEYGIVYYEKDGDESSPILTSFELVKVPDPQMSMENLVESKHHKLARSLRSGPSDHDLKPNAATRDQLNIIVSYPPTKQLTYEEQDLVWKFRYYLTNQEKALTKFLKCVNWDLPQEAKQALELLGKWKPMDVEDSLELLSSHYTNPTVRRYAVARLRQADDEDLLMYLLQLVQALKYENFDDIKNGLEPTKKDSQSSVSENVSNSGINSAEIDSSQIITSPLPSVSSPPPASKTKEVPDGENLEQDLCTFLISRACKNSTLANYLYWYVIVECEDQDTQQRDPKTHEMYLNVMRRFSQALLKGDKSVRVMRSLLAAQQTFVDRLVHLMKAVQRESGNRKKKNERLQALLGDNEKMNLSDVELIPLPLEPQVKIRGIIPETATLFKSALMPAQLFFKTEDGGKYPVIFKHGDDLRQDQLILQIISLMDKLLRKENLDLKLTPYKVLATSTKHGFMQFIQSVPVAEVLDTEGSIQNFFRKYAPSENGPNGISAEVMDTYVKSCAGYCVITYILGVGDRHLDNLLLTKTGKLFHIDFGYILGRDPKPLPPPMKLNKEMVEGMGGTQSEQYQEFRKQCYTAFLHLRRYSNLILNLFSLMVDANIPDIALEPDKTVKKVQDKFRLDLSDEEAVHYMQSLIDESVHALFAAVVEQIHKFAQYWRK
Experiment: Human VPS34 enzyme assay (Adapta TR-FRET)
Format: biochemical
Settings: compound concentration 1.11 μM; read-out: Percent Inhibition

Example compounds with recorded inhibition at 1.11 µM:
CC(=O)Nc1cc(-c2cncc(NS(=O)(=O)N(C)C)c2)ccn1; > 99%
CC(=O)Nc1cc(-c2cnc(N)c(S(=O)(=O)NCCc3ccccc3)c2)ccn1; > 99%
CC(=O)Nc1cc(-c2cnc(N)c(C(=O)NC3CC3)c2)ccn1; > 99%

Prompt: Form field: inhibition at 1.11 µM recorded for `COc1ncc(-c2ccnc(NC(C)=O)c2)cc1N(C)C(=O)c1ccc(F)cc1F` with Human VPS34 (Homo sapiens (Human), UniProt Q8NEB9) (enter value)
Completion: 93%

Prompt: Short answer please: inhibition at 1.11 µM, Human VPS34 (Homo sapiens (Human), UniProt Q8NEB9), entry `CCc1ncc(-c2ccnc(NC(C)=O)c2)cc1NS(=O)(=O)c1ccc(F)cc1F`
Completion: > 99%
